TESTED_ON: Protein-arginine deiminase type-4 (Homo sapiens) (UniProt Q9UM07)
Sequence (Q9UM07 whole entry, looked up): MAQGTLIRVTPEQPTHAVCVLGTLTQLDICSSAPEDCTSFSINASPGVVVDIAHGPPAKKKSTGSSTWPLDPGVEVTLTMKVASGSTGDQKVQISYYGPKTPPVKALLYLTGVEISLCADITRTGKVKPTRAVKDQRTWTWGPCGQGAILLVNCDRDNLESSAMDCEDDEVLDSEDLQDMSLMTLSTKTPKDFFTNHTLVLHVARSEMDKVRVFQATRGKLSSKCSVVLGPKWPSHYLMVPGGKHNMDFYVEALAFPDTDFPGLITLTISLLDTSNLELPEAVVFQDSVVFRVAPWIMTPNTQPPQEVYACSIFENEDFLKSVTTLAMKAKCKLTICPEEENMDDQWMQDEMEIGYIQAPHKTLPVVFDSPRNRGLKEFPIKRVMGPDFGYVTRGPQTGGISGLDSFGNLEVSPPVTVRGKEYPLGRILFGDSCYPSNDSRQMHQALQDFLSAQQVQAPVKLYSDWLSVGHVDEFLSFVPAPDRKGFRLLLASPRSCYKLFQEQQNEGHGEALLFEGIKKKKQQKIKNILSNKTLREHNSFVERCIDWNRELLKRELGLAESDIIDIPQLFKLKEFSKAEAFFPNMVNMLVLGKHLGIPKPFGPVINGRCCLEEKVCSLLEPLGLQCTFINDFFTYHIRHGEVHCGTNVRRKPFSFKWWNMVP
PROCEDURE_TEXT: PAD4 inhibitors, single-concentration test, late-stage follow-up, biochemical, BAEE substrate, colorimetric citrulline readout (AID 588559)
MEASUREMENT_PARAMETERS: recombinant PAD4, BAEE substrate, colorimetric citrulline detection; at 100 µM; hits give high values
RECORDED_METRIC: inhibition (%)
The figure you give is taken to be in %; do not add the unit.

{"columns": ["CHEM_SMILES", "inhibition [%]"],
 "data": [
  ["COC(=O)c1cccc(-c2ccc3c(n2)C(=O)C(Br)=CC3=O)n1", 90]
]}

Can you look up the measured inhibition of NC1=CC(=O)c2ccc(-c3ccccn3)nc2C1=O for me?
88

Do the same for NC1=CC(=O)c2cccnc2C1=O please
98

Do the same for COC(=O)c1nc(C(=O)OC)c(N)c(-c2ccccc2Br)c1C please
9

Do the same for COC(=O)c1nc(C(=O)OC)c(NC(C)=O)c(-c2ccccc2Br)c1C please
67

Do the same for COC(=O)c1nc(-c2ccc3c(n2)C(=O)C(Br)=CC3=O)c2[nH]c3ccccc3c2c1C please
0

* * *

TESTED_ON: Protein-arginine deiminase type-4 (Homo sapiens) (UniProt Q9UM07)
PROCEDURE_TEXT: PAD4 inhibitors, single-concentration test, late-stage follow-up, biochemical, BAEE substrate, colorimetric citrulline readout (AID 588559)
MEASUREMENT_PARAMETERS: recombinant PAD4, BAEE substrate, colorimetric citrulline detection; at 100 µM; hits give high values
Label rule, in plain words: inhibition of -10% and up is condition met, under -10% is condition not met.

Please review the following examples before continuing.
{"columns": ["CHEM_SMILES", "GROUP"],
 "data": [
  ["COC1=CC(=O)c2nc(C#N)ccc2C1=O", "condition met"],
  ["COC(=O)c1nnc(C(=O)OC)c(-c2ccc3ccccc3n2)n1", "condition not met"],
  ["COC(=O)c1nnc(C(=O)OC)c(-c2ccc3c([N+](=O)[O-])c(OC)ccc3n2)n1", "condition not met"],
  ["COC1=C(I)C(=O)c2nc(C#N)ccc2C1=O", "condition met"]
]}

Decide: is the reported value of inhibition for COC(=O)c1cccc(-c2ccc3ccc(Br)c(O)c3n2)n1 equal to or greater than -10%?
condition met

* * *

TESTED_ON: Protein-arginine deiminase type-4 (Homo sapiens)
PROCEDURE_TEXT: PAD4 inhibitors, single-concentration test, late-stage follow-up, biochemical, BAEE substrate, colorimetric citrulline readout (AID 588559)
MEASUREMENT_PARAMETERS: recombinant PAD4, BAEE substrate, colorimetric citrulline detection; at 100 µM
Active and inactive are the calls of the source.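 Rule for the calls: active = PAD4 enzyme activity blocked 50% or more; inactive = under 50% inhibition.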
Please answer using one outcome listed in active, inactive

{"columns": ["CHEM_SMILES", "GROUP"],
 "data": [
  ["O=C1C(Br)=CC(=O)c2ncccc21", "active"],
  ["O=C(O)c1cccc(-c2ccc3ccc(Br)c(OCc4ccccc4)c3n2)n1", "inactive"],
  ["O=C1C(O)=C(O)C(=O)c2ncccc21", "active"],
  ["COC1=C(N)C(=O)c2ncccc2C1=O", "active"],
  ["NC1=CC(=O)c2ccc(-c3cccc(C(=O)O)n3)nc2C1=O", "active"]
]}

Tell me the recorded outcome of this test for NC1=C(N)C(=O)c2ccccc2C1=O .
active

Do the same for NC1=CC(=O)c2ccc(-c3cc(C(=O)O)ccc3N)nc2C1=O please
active

Do the same for COC(=O)c1cccc(-c2ccc3c(n2)C(=O)C(N)=CC3=O)n1 please
active

Do the same for CCOC(=O)c1nc(C(=O)OCC)c(C(=O)OCC)c(-c2ccc(OC)c(OC)c2OCc2ccccc2)c1C please
inactive

Do the same for COC1=C(Br)C(=O)c2ncccc2C1=O please
active

Do the same for COC(=O)c1nc(C(C)=O)c2[nH]c3ccccc3c2c1C please
inactive

Do the same for COc1ccc2ncccc2c1[N+](=O)[O-] please
inactive

Do the same for COc1ccc2nc(C#N)ccc2c1[N+](=O)[O-] please
inactive

Do the same for COC(=O)c1cc(-c2ccccc2)c(C(=O)OC)c(-c2ccc3ccccc3n2)n1 please
inactive

Do the same for COC(=O)c1nnc(C(=O)OC)c(-c2ccc3cc(OC)ccc3n2)n1 please
inactive

Do the same for COC1=C(Br)C(=O)c2nc(-c3ccccn3)ccc2C1=O please
active

Do the same for O=C1C=C(Br)C(=O)c2ncccc21 please
active

Just for reference, PubChem BioAssay AID588559 is where these values come from.
